- target_or_system: T1, human CD79b recombinant protein (human, UniProt P40259 29-159)
- T1 construct: also called human CD79b ECD antigen; recombinant human CD79b ECD
- T1 sequence: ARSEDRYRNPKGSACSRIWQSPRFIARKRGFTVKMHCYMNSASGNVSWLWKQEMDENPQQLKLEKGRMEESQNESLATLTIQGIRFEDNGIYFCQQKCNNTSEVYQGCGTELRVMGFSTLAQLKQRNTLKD
- assay_text: ELISA, coated human CD79b recombinant protein
pIC50: −log10 of the molar value.
measure_name: pIC50

ch44G2 (antibody, human IgG1, kappa, V domains shown, Rabbit/human chimeric IgG1 kappa; also called chimeric 44G2) VH: QSVRETGGGLVQPGGSLKLSCKASGFTINIDYWISWVRQAPGKGLEWIGIIDPGDGTTYFAIWVSGRFTISFDNTQNTVDLQMNSLTAADTATYFCVREFSASAYQYDLWGPGTLVTVSS VL: DLVMTQTPSSVSAAVGGTVSINCRASEDIENYLAWYQQKPGQPPKLLIYRASTLSSGVSSRFSGSGSGTEFTLTISGVQPDDAATYYCQQGYRNSNVDNPFGGGTEMVVKR :: 9.20
ch57B9 (antibody, human IgG1, kappa, V domains shown, Rabbit/human chimeric IgG1 kappa; also called chimeric 57B9) VH: QSVRETGGGLVQPGGSLTLSCEASEFTINIDYWISWVRQAPGKGLEWIGIIDPGDGTTYFAIWVSGRFTITRNTNLNTVDLKMTSLTEADTATYFCAREVSASAYQYDLWGPGTLVTVSS VL: ALVMTQTPSSVSADVGGTVSINCQASEDIESYLAWYQQKPGQPPKLLIYFTSNLASGVPSRFKGSGSGTEYTLTISGVQPDDAATYYCQQGYRNSDVHNPFGGGTEVVVKR :: 9.38
ch48H10 (antibody, human IgG1, kappa, V domains shown, Rabbit/human chimeric IgG1 kappa; also called chimeric 48H10) VH: QSVKETGGGLVQPGGSLTLSCKASGFTINIDYWISWVRQAPGKGLEWIGIIDPGDGTTYFAIWVSGRFTISTDNAQNTVDLQMNSLTAADTATYFCAREFSASAYQYDLWGPGTLVTVSS VL: ALVMTQTPSSVSAAVGGTVSINCQASEDIESYLTWYQQKPGQPPKLLMYRASTLSSGVSSRFSASGSGTEFTLTISGVQPDDAATYYCQQGYRNKDVDNPFGGGTEVVVKR :: 9.22
polatuzumab (antibody, V domains shown) VH: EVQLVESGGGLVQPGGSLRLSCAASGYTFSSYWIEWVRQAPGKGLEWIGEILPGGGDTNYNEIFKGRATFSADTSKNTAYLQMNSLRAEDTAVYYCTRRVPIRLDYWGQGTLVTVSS VL: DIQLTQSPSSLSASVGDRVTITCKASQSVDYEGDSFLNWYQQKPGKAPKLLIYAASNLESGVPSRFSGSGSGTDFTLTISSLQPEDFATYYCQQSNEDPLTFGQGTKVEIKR :: 9.72
